# ASSAY INFO: S. cerevisiae growth inhibition in permissive medium (OD615), pilot counter-assay for S. cerevisiae lifespan shortening project, permissive growth control (AID 705)
# STUDY CONDITIONS: OD615, 24 h, at 10 µM, hits give high values
Measured growth inhibition of individual entries
PROPERTY MEASURED: growth inhibition (%)

MOLECULE	PROPERTY MEASURED	NUMERIC VALUE
COc1ccccc1-n1c(=O)[nH]c2c(C(N)=O)nc(C3CCCCC3)nc21	growth inhibition	-7.19
COc1ccc(C2C(C#N)=C(C)NC3=C2C(=O)CC(C)(C)C3)c(OC)c1 (configuration not stated)	growth inhibition	-22.8
COc1ccc(C2C(C(=O)N3CCCC3)c3cc(OC)c(OC)cc3C(=O)N2C)cc1 (configuration not stated)	growth inhibition	-8.59
COc1ccc(NC(=O)NCCN2CCN(c3cccc(Cl)c3)CC2)cc1	growth inhibition	1.49
CC(NC(=O)C1CC1)C(c1cccs1)N1CCN(c2ccccc2)CC1 (configuration not stated)	growth inhibition	-6.42
Cc1ccc(Cl)cc1N1CCN(C(=O)C2CCC(=O)N2C(C)C)CC1 (configuration not stated)	growth inhibition	-2.15
CC(Sc1nc(-c2ccccc2)cc(C(F)(F)F)n1)C(=O)N1CCCC1 (configuration not stated)	growth inhibition	-2
COc1ccc(N2CCN(c3oc(COc4ccccc4Cl)nc3C#N)CC2)cc1	growth inhibition	-2.64
CC1CCCCC1NC(=O)CCS(=O)(=O)c1cccc2nonc12 (configuration not stated)	growth inhibition	-0.105
COc1ccc(OC)c(S(=O)(=O)N2CCN(c3c(C)cccc3C)CC2)c1	growth inhibition	0.405
COc1ccccc1OCc1nc(C#N)c(N2CC(C)CC(C)C2)o1 (configuration not stated)	growth inhibition	-10.7
CC1(C)CC(=O)N(CC(=O)NCc2ccccc2)c2ccccc2S1(=O)=O	growth inhibition	-3.67
COc1ccc(C2C(C(=O)Nc3cccnc3)=C(C)Nc3nc(-c4cccs4)nn32)cc1OC (configuration not stated)	growth inhibition	-9.82
Cn1c(Cn2c(=O)sc3ccccc32)nnc1SCc1ccccc1	growth inhibition	-3.71
CC(C)(C)NC(=O)Cn1c(=O)oc2ccc(Cl)cc21	growth inhibition	5.54
CCC(C)NC(=O)CS(=O)(=O)Cc1nc(-c2cccc(OC)c2)oc1C (configuration not stated)	growth inhibition	3.02
CCOc1ccc(-c2nnc3n2N=C(c2ccc(OC)cc2)CS3)cc1	growth inhibition	-2.4
CCc1ccccc1S(=O)(=O)Cc1ccc(C(=O)N2CCN(c3ccccn3)CC2)o1	growth inhibition	-8.76
CCNc1nnc(-c2ccccc2OC)s1	growth inhibition	-2.37
CNc1nc(C)nc(-c2ccccc2O)n1	growth inhibition	-3.62
CC(C(=O)Oc1ccc2c(c1)OCO2)N1C(=O)c2ccccc2C1=O (configuration not stated)	growth inhibition	-0.745
CCCSc1nc2c(cnn2-c2ccc(C)c(C)c2)c(=O)[nH]1	growth inhibition	-8.57
